What EC-50 (nM), cAMP accumulation was measured for each of the following?
# Assay Target: melanocortin-4 receptor (human, UniProt P32245 1-332)
# Sequence (P32245 whole entry): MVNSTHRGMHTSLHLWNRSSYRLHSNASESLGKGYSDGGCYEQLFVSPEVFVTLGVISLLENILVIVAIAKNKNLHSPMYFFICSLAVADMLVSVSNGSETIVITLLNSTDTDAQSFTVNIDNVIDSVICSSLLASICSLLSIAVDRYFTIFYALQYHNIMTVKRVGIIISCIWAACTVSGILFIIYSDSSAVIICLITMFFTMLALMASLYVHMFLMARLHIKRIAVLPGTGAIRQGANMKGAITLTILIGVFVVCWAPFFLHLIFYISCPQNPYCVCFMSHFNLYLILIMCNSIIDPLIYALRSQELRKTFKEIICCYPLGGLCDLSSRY
# Experiment: cell-based or functional assay
Bridges are numbered along the chain shown (N, C = ends). [ ]: non-standard residue; d: D form. Pen = CC(C)(S)[C@H](N)C(=O)O; hCys = N[C@@H](CCS)C(=O)O; Dap = NC[C@H](N)C(=O)O
Give bare numbers, in nM.

Binder	Measure Unit	EC-50 (nM), cAMP accumulation
Ac-REQ[dF]RW[Dap]-NH2 (lactam 2-7; SMILES CC(=O)N[C@@H](CCCNC(=N)N)C(=O)N[C@H]1CCC(=O)NC[C@@H](C(N)=O)NC(=O)[C@H](Cc2c[nH]c3ccccc23)NC(=O)[C@H](CCCNC(=N)N)NC(=O)[C@@H](Cc2ccccc2)NC(=O)[C@H](CCC(N)=O)NC1=O) [001576C, Ac-Arg-(Glu-Gln-D-Phe-Arg-Trp-Dpr)-NH2]	nM	0.66
Ac-R[hCys]S[dF]RW[Pen]-NH2 (disulfide 2-7; SMILES CC(=O)N[C@@H](CCCNC(=N)N)C(=O)N[C@H]1CCSSC(C)(C)[C@@H](C(N)=O)NC(=O)[C@H](Cc2c[nH]c3ccccc23)NC(=O)[C@H](CCCNC(=N)N)NC(=O)[C@@H](Cc2ccccc2)NC(=O)[C@H](CO)NC1=O) [001556C, Ac-Arg-(hCys-Ser-D-Phe-Arg-Trp-Pen)-NH2]	nM	1.86
Ac-R[hCys]T[dF]RW[Pen]-NH2 (disulfide 2-7; SMILES CC(=O)N[C@@H](CCCNC(=N)N)C(=O)N[C@H]1CCSSC(C)(C)[C@@H](C(N)=O)NC(=O)[C@H](Cc2c[nH]c3ccccc23)NC(=O)[C@H](CCCNC(=N)N)NC(=O)[C@@H](Cc2ccccc2)NC(=O)[C@H]([C@@H](C)O)NC1=O) [001574C, Ac-Arg-(hCys-Thr-D-Phe-Arg-Trp-Pen)-NH2]	nM	1.11

Give measured EC-50 (nM), cAMP accumulation for every item shown.
1. Ac-R[hCys]N[dF]RW[Pen]-NH2 (disulfide 2-7) [001554C, Ac-Arg-(hCys-Asn-D-Phe-Arg-Trp-Pen)-NH2]
2. Ac-R[hCys]Q[dF]RW[Pen]-NH2 (disulfide 2-7) [001555C, Ac-Arg-(hCys-Gln-D-Phe-Arg-Trp-Pen)-NH2]

(A)
1.6
0.19
